Documented melting point across a set of molecules

Below: 4 molecules and their reported melting point.
>>> result("Cc1cccc(-c2oc3ccc(C)cc3c(=O)c2C(=O)O)c1")
"192 to 195 °C"
>>> result("Cc1ccc2c(=O)c(C(=O)O)c(-c3cccs3)oc2c1")
"202 to 203 °C"
>>> result("COc1cccc2c(=O)c(C(=O)O)c(-c3ccc(Cl)cc3)oc12")
"238 to 239 °C"
>>> result("COc1ccc2c(=O)c(C(=O)O)c(-c3ccc(OC)c(OC)c3)oc2c1")
"208 to 210 °C"

Continue with the molecule presented below.
Value of melting point reported for the molecule O=C(O)c1c(-c2cccs2)oc2ccccc2c1=O is 175 to 176 °C

###

# maps each entry to its melting point

Reference set (2 entries):
>>> result("O=C(O)c1c(-c2cc(F)cc(F)c2)oc2ccc(Br)cc2c1=O")
"216 to 218 °C"
>>> result("O=C(O)c1c(-c2cccc(F)c2F)oc2ccc(Br)cc2c1=O")
"≥ 120 °C"

// field: melting point; key: Cc1ccc2c(=O)c(C(=O)O)c(-c3cc(F)ccc3F)oc2c1 ; value = 156 to 158 °C
